System: PAMPA
ASSAY_CONTEXT: Acceptor Concentration (uM) / experiment 10; UV detection; initial concentration 500 uM
Below, each of the molecules is paired with its reported Acceptor Concentration value.
Field format: number, assumed µM, no unit text.

Identify the measured Acceptor Concentration of CCCCC[C@H](OC(=O)[C@@H](C)N(C)C(=O)[C@H](CCCCC)OC(=O)[C@@H](C)N(C)C(=O)OC(C)(C)C)C(=O)OCc1ccccc1 for PAMPA.
83.7

* * *

System: PAMPA
ASSAY_CONTEXT: Papp (x 10^-6 cm/s) – ELSD Detection / [row 13]; ELSD Detection
OUTCOME_MEASURE: Papp (×10⁻⁶ cm/s)
Please state the figure in ×10⁻⁶ cm/s; there is no need to write the unit.

| MOLECULE | UNITS_LABEL | Papp |
| --- | --- | --- |
| CCCCC[C@@H]1OC(=O)[C@@H](C)N(C)C(=O)[C@H](CCCCC)OC(=O)[C@@H](C)N(C)C(=O)[C@H](CCCCC)OC(=O)[C@@H](C)N(C)C1=O [Compound C1.3, ent-verticilide B1] | ×10⁻⁶ cm/s | 5.05 |

Here is the next item to consider.
What Papp value was documented for this molecule, CCCCC[C@@H]1OC(=O)[C@@H](C)N(C)C(=O)[C@H](CCCCC)OC(=O)[C@@H](C)N(C)C(=O)[C@H](CCCCC)OC(=O)[C@@H](C)N(C)C(=O)[C@H](CCCCC)OC(=O)[C@@H](C)N(C)C1=O [Compound C1.4, ent-verticilide] ?
4.62

* * *

System: PAMPA
ASSAY_CONTEXT: Acceptor Concentration (uM) / [row 7]; UV detection; initial concentration 500 uM
OUTCOME_MEASURE: Acceptor Concentration (µM)
Just the number please, in µM, no unit attached.

| COMPOUND | REPORTED_MEASUREMENT |
| --- | --- |
| CCCCC[C@H](OC(=O)[C@@H](C)N(C)C(=O)[C@H](CCCCC)OC(=O)[C@@H](C)N(C)C(=O)[C@H](CCCCC)OC(=O)[C@@H](C)N(C)C(=O)[C@H](CCCCC)OC(=O)[C@@H](C)N(C)C(=O)OC(C)(C)C)C(=O)OCc1ccccc1 | 51.5 |

Query compound follows.
Can you look up the measured Acceptor Concentration of CCCCC[C@H](NC(=O)[C@@H](C)N(C)C(=O)OC(C)(C)C)C(=O)N(C)[C@H](C)C(=O)N[C@H](CCCCC)C(=O)N(C)[C@H](C)C(=O)O[C@@H](CCCCC)C(=O)N(C)[C@H](C)C(=O)O[C@@H](CCCCC)C(=O)OCc1ccccc1 (stereo in doubt) for me?
66.3

* * *

System: PAMPA
ASSAY_CONTEXT: Papp (x 10^-6 cm/s) / experiment 1; UV detection
OUTCOME_MEASURE: Papp (×10⁻⁶ cm/s)
Form entry: value (×10⁻⁶ cm/s) — number only.

Examples with answers:
| MOLECULE | Papp / ×10⁻⁶ cm/s |
| --- | --- |
| CCCCC[C@H](OC(=O)[C@@H](C)N(C)C(=O)[C@H](CCCCC)OC(=O)[C@@H](C)N(C)C(=O)[C@H](CCCCC)OC(=O)[C@@H](C)N(C)C(=O)[C@H](CCCCC)OC(=O)[C@@H](C)N(C)C(=O)OC(C)(C)C)C(=O)OCc1ccccc1 [Compound L1.4] | 1.61 |
| CCCCC[C@H](OC(=O)[C@@H](C)N(C)C(=O)[C@H](CCCCC)OC(=O)[C@@H](C)N(C)C(=O)[C@H](CCCCC)OC(=O)[C@@H](C)N(C)C(=O)[C@H](CCCCC)OC(=O)[C@@H](C)N(C)C(=O)[C@H](CCCCC)OC(=O)[C@@H](C)N(C)C(=O)OC(C)(C)C)C(=O)OCc1ccccc1 [Compound L1.5] | 2.29 |
| CCCCC[C@H](OC(=O)[C@@H](C)N(C)C(=O)OC(C)(C)C)C(=O)OCc1ccccc1 [Compound L1.1] | 4.67 |

So what's the measured Papp for this one? CCCCC[C@H](OC(=O)[C@@H](C)N(C)C(=O)[C@H](CCCCC)OC(=O)[C@@H](C)N(C)C(=O)[C@H](CCCCC)OC(=O)[C@@H](C)N(C)C(=O)[C@H](CCCCC)OC(=O)[C@@H](C)N(C)C(=O)[C@H](CCCCC)OC(=O)[C@@H](C)N(C)C(=O)[C@H](CCCCC)OC(=O)[C@@H](C)N(C)C(=O)OC(C)(C)C)C(=O)OCc1ccccc1 [Compound L1.6]
0.4

Entry CCCCC[C@H](OC(=O)[C@@H](C)N(C)C(=O)[C@H](CCCCC)OC(=O)[C@@H](C)N(C)C(=O)OC(C)(C)C)C(=O)OCc1ccccc1 [Compound L1.2] has what Papp?
3.2

GET /values?readout=Papp&item= CCCCC[C@H](OC(=O)[C@@H](C)N(C)C(=O)[C@H](CCCCC)OC(=O)[C@@H](C)N(C)C(=O)[C@H](CCCCC)OC(=O)[C@@H](C)N(C)C(=O)OC(C)(C)C)C(=O)OCc1ccccc1 [Compound L1.3]
3.86
